Tested on: trypomastigote of T. cruzi Dm28
Test: Trypanocidal activity (MTT) on trypomastigotes
Type: cell-based
Conditions: Trypanosoma cruzi, 100 µM, 24 h, n.a = not active, read-out: % T. cruzi Trypomastigote (trypanocidal effect)
Measured endpoint: killing at 100 µM (%)

>>> reported_value("Cc1noc(/C=C/c2ccccc2)c1[N+](=O)[O-] [Compound 4, (E)-3-Methyl-4-nitro-5-styrylisoxazole]")
0
>>> reported_value("Cc1noc(/C=C/c2ccc(F)cc2)c1[N+](=O)[O-] [Compound 5]")
19
>>> reported_value("Cc1ccc(-n2cc(/C=C/c3onc(C)c3[N+](=O)[O-])c3ccccc32)cc1 [Compound 14]")
3
>>> reported_value("Cc1noc(/C=C/c2cn(-c3ccc(Cl)cc3)c3ccccc23)c1[N+](=O)[O-] [Compound 13]")
14
>>> reported_value("Cc1noc(/C=C/c2cccc(Br)c2)c1[N+](=O)[O-] [Compound 16]")
22
>>> reported_value("COc1cc(/C=C/c2onc(C)c2[N+](=O)[O-])ccc1O [Compound 9]")
15
>>> reported_value("Cc1noc(/C=C/c2ccc(Br)cc2)c1[N+](=O)[O-] [Compound 17]")
15
>>> reported_value("Cc1noc(/C=C/N2CCCCC2)c1[N+](=O)[O-] [Compound 3]")
20
>>> reported_value("Cc1noc(/C=C/c2cn(-c3ccccc3)c3ccccc23)c1[N+](=O)[O-] [Compound 12]")
16

* * *

Recorded Ipa/Ipc by entry
Assay: Cyclic voltammetry (reduction of the nitro group)
Format: physicochemical
Conditions: cyclic voltammetry at 2.0 V/s
Measured endpoint: Ipa/Ipc

>>> reported_value("Cc1noc(/C=C/N2CCCC2)c1[N+](=O)[O-]")
0.32
>>> reported_value("Cc1noc(/C=C/c2cn(-c3ccccc3)c3ccccc23)c1[N+](=O)[O-]")
"−0.36"
>>> reported_value("Cc1noc(/C=C/c2ccccc2Br)c1[N+](=O)[O-]")
"−0.14"
>>> reported_value("Cc1noc(/C=C/c2ccc([N+](=O)[O-])cc2)c1[N+](=O)[O-]")
"−0.44"
>>> reported_value("Cc1ccc(-n2cc(/C=C/c3onc(C)c3[N+](=O)[O-])c3ccccc32)cc1")
"−0.32"
>>> reported_value("Cc1noc(/C=C/N(C)C)c1[N+](=O)[O-]")
"−0.44"
>>> reported_value("Cc1noc(/C=C/c2ccc(F)cc2)c1[N+](=O)[O-]")
"−0.02"
>>> reported_value("Cc1noc(/C=C/c2cn(-c3ccc(Cl)cc3)c3ccccc23)c1[N+](=O)[O-]")
"−0.41"
>>> reported_value("COc1cc(/C=C/c2onc(C)c2[N+](=O)[O-])ccc1O")
"−0.17"

All values here come from paper PMC11207111.
